Below, each entry is listed alongside its reported pKd.
Molecular target: human serum albumin (HSA) (Homo sapiens)
Conditions: Nap-dU at n (6) positions [3,5-6,8,13-14,19,21,24]; ELISA, SB18, 37 C
pKd: −log10 of the molar value.
endpoint-label: pKd

input-sequence: CCTCTTCTGAAGTTAACATGTGCTCCGAGA [AD013]
reported: 7.33

input-sequence: CCTCTTCTGAAGTTAACATGTGCTCC [AD015]
reported: 7.43

----------
Target: 4-1BB (TNFRSF9) (Homo sapiens)
Conditions: Nap-dU at n (6) positions [6,8,15,20,21,22,28,30,32,34,42]; ELISA, SB18, 37 C
pKd: −log10 of the molar value.

input-sequence: GCCTGTCTCCAACCTCGCCTTTACAACTATATCTGACGAACTAACACAGCC [AB002]
pKd: 9.32
